B1: CPEB3 Ribozyme (parent)
chain: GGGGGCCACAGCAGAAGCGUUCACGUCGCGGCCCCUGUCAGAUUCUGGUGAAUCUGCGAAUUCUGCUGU

# Variants of: B1
# ASSAY NOTES: self-cleavage, relative activity (ratio to wild type); higher = more cleavage; co-transcriptional
Each item that follows carries a reported self-cleavage.
Answer with the value's number alone.

// solved cases for self-cleavage follow
C33A A40G	0.748
G5C G65U	0.0855
C7G	0.497
G11U A23U	0.945

The record that follows has no self-cleavage shown yet.
Complete the entry with self-cleavage for A13G G19A
0.155
